# Test system: cholesterol and triglyceride levels in the serum
# assay.explanation: Lowering of Lipid Levels (cholesterol and triglyceride levels in the serum of male rats of normal metabolism, 7 days)
# Type: in vivo
# test.conditions: 100 mg/kg/d for 7 days in methyl cellulose suspension, serum 3 hours after last dose, in comparison to control
Listed next: entries and their corresponding % of reduction of triglycerides.
Numbers only here, please. The scale is %.

Example entries and their recorded answers appear below.
O=C(O)c1ccc(CCN2CCN(Cc3ccccc3Cl)CC2)cc1    10
COc1ccc(OC(C)CN2CCN(CCc3ccc(C(=O)O)cc3)CC2)cc1 (centres unmarked)    42
CC(C)(C)c1cc(CCC(=O)N2CCN(CCc3ccc(C(=O)O)cc3)CC2)cc(C(C)(C)C)c1O    22

Reported % of reduction of triglycerides ( O=C(O)c1ccc(CCN2CCN(C(=O)c3ccc(Cl)cc3)CC2)cc1 ) = 24

The measured % of reduction of triglycerides associated with CC(CN1CCN(CCc2ccc(C(=O)O)cc2)CC1)Oc1ccccc1 (centres unmarked) reads 41

---

# System: cholesterol and triglyceride levels in the serum
# assay.explanation: Lowering of Lipid Levels (cholesterol and triglyceride levels in the serum of male rats of normal metabolism, 7 days)
# Format: in vivo
# test.conditions: 100 mg/kg/d for 7 days in methyl cellulose suspension, serum 3 hours after last dose, in comparison to control
Quick rule for you: % of reduction of cholesterol under 40% gets MET, anything else gets NOT MET.

The examples below pair each entry with its known result.
CC(C)(C)c1cc(CCC(=O)N2CCN(CCc3ccc(C(=O)O)cc3)CC2)cc(C(C)(C)C)c1O    MET
COc1ccc(OC(C)CN2CCN(CCc3ccc(C(=O)O)cc3)CC2)cc1 (centres unmarked)    MET
CC(CN1CCN(CCc2ccc(C(=O)O)cc2)CC1)Oc1ccccc1 (centres unmarked)    NOT MET

# TODO verify % of reduction of cholesterol < 40% strictly for this compound: O=C(O)c1ccc(CCN2CCN(Cc3ccccc3Cl)CC2)cc1
MET
